protocol summary: Human HepG2 cell viability assay in 384 well format
Assay type: toxicity, cell-based
Parameters: dose 125 nL, time 70.5 hour; concentration not given beside the values
cond: HepG2 cells, read-out: Inhibition
metric: cytotoxicity at 70.5 h (%)
Just the number please, in %, no unit attached.

As a guide, the following entries are already answered.
INSERT INTO measurements (compound, experimental_result) VALUES
  ('Cc1csc(C2CCCCN2C(=O)Cn2cncn2)n1 (stereo unspecified)', 20.9),
  ('CC(C)NC(=O)N1CCN(C(=O)NC(C)C)CC2(CNC(=O)C2)C1', 2.71),
  ('O=C(Cc1ccc2c(c1)OCCO2)NC1CC1', 0.821),
  ('CCCc1noc(CCC(=O)NC(C)c2nnc3n2CCCCC3)n1 (stereo unspecified)', -9.55),
  ('CC(C)c1nc2c(n1C)CCN(CCc1ccccn1)C2', -4.15),
  ('CSc1nsc(NC(=O)N(C)Cc2ccc3c(c2)OCO3)n1', -8.04);

## Input What cytotoxicity at 70.5 h value was documented for this compound, `CCNc1ncc(C(=O)NCc2csc(-c3ncccn3)n2)cn1` ?
## Output 3.46

## Input What cytotoxicity at 70.5 h value was documented for this compound, `C[C@@H]1C(=O)NC[C@H]2CN(CCc3ccccc3)C[C@H]21` ?
## Output -0.303

## Input What cytotoxicity at 70.5 h value was documented for this compound, Cn1cnc(NC(=O)C2CC(=O)N(c3cccc(F)c3)C2)n1 (stereo unspecified) ?
## Output 18.3

## Input What cytotoxicity at 70.5 h value was documented for this compound, `O=C(NCc1ccco1)c1[nH]nc2c1CS(=O)(=O)CC2` ?
## Output 22.5

## Input What cytotoxicity at 70.5 h value was documented for this compound, `CN(Cc1n[nH]c2c1CCC2)C(=O)c1cccc(CCC(C)(C)O)c1` ?
## Output 1.92

###

protocol summary: Human HepG2 cell viability assay in 384 well format
Assay type: toxicity, cell-based
Set-up: dose 125 nL, time 70.5 hour; concentration not given beside the values
cond: HepG2 cells, read-out: Inhibition
metric: cytotoxicity at 70.5 h (%)
Just the number please, in %, no unit attached.

INSERT INTO results (compound, unit_info, experimental_result) VALUES
  ('CNC(=O)CN(C)C(=O)c1cc(Cl)c(Cl)n1C', '%', 17.1),
  ('COc1cccc(CC2CN(C3CC(C)(C)NC(C)(C)C3)CCO2)c1 (configuration not stated)', '%', 50.4),
  ('CC(=O)N1CCCC(C(=O)c2cnn(-c3ccc(F)cc3)c2N)C1 (configuration not stated)', '%', -2.75),
  ('CC(c1cccs1)N(C)Cc1cnc(-c2ccccn2)nc1 (configuration not stated)', '%', 3.52),
  ('CCN(C(c1cccnc1)c1ccc(F)cc1F)S(C)(=O)=O (configuration not stated)', '%', -12.1),
  ('CC(C)c1nc(C2CCCN2C(=O)c2nccnc2N)no1 (configuration not stated)', '%', -7.76),
  ('CC(C)COc1cncc(N2CCCN(c3ncccn3)CC2)n1', '%', -7.71),
  ('CC(C)Oc1ccc2c(NC(=O)CNC(N)=O)nn(CC(F)(F)F)c2c1', '%', 3.1);

## Input What cytotoxicity at 70.5 h value was documented for this compound, `CSCCc1nc(-c2ccc3c(c2)OCO3)n(C)n1` ?
## Output -4.21

## Input What cytotoxicity at 70.5 h value was documented for this compound, Cn1cc(C2CCCN2C(=O)Cn2ccc3ccc(Cl)cc32)cn1 (configuration not stated) ?
## Output 12.2

## Input What cytotoxicity at 70.5 h value was documented for this compound, `CCOc1cccc(CNc2cnn(CC(C)C)c2CC)c1` ?
## Output -7.62

## Input What cytotoxicity at 70.5 h value was documented for this compound, Cc1nnc(CCNC(=O)C2CC(=O)N(C(C)(C)C)C2)s1 (configuration not stated) ?
## Output 26.2

###

protocol summary: Human HepG2 cell viability assay in 384 well format
Format: toxicity, cell-based
Set-up: dose 125 nL, time 70.5 hour; concentration not given beside the values
cond: HepG2 cells, read-out: Inhibition
metric: cytotoxicity at 70.5 h (%)
Just the number please, in %, no unit attached.

INSERT INTO results (compound, experimental_result) VALUES
  ('Cc1ccc(CNCc2c[nH]nc2C(C)(C)C)c(OC2CCOC2)c1 (stereo unspecified)', -5.05);

## Input What cytotoxicity at 70.5 h value was documented for this compound, `Cc1cc(NC(=O)CCn2cncn2)no1` ?
## Output 5.52

## Input What cytotoxicity at 70.5 h value was documented for this compound, `Cc1noc(C)c1CNCc1ccccc1N(C)C1CCN(C)CC1` ?
## Output -4.38

## Input What cytotoxicity at 70.5 h value was documented for this compound, O=C(Nc1nnc(C2CC2)s1)NC1CCN(Cc2ccccc2)C1 (stereo unspecified) ?
## Output -28

## Input What cytotoxicity at 70.5 h value was documented for this compound, `Cc1ccc(NC(=O)CSCc2cccnc2)nc1` ?
## Output -1.37

## Input What cytotoxicity at 70.5 h value was documented for this compound, CNc1snc(C)c1C(=O)N1CCCC(n2cc(C)cn2)C1 (stereo unspecified) ?
## Output -8.17

###

protocol summary: Human HepG2 cell viability assay in 384 well format
Format: toxicity, cell-based
Parameters: dose 125 nL, time 70.5 hour; concentration not given beside the values
cond: HepG2 cells, read-out: Inhibition
Entries and their cytotoxicity at 70.5 h
Just the number please, in %, no unit attached.

As a guide, the following entries are already answered.
INSERT INTO results (molecule, experimental_result) VALUES
  ('Cc1ccccc1Cc1nc(CSc2nnc(N)n2C2CC2)no1', -12.1),
  ('CS(=O)(=O)N1CCC(Oc2ccc(C(=O)NCC3CCC3)cc2Cl)CC1', -12.8),
  ('Cc1nc2c(c(NCC(c3cccnc3)N3CCOCC3)n1)CCNC2 (centres undefined)', -15.5),
  ('CS(=O)(=O)NCC1CCCN(C(=O)c2ccco2)C1 (centres undefined)', -6.79),
  ('Cc1nn(C)cc1NC(=O)CC1CCN(C(=O)Cc2ccccc2)CC1', -4.98);

## Input What cytotoxicity at 70.5 h value was documented for this molecule, `O=C1NCC[C@]12CN(Cc1ccncc1)C[C@H]2c1ccccc1` ?
## Output -1.85

## Input What cytotoxicity at 70.5 h value was documented for this molecule, CSc1ccc(C(=O)C2CCCN(C(=O)CCn3cnnn3)C2)cc1 (centres undefined) ?
## Output 14.5

## Input What cytotoxicity at 70.5 h value was documented for this molecule, CC(=O)Nc1nc(C(=O)N2CCCCC2Cn2cc(C)cn2)cs1 (centres undefined) ?
## Output 5.83

## Input What cytotoxicity at 70.5 h value was documented for this molecule, Cn1cc(CN2CCC3(CCCN(C(=O)c4cnccn4)C3)C2)cn1 (centres undefined) ?
## Output -5.89

## Input What cytotoxicity at 70.5 h value was documented for this molecule, `Cn1ccnc1-c1ccc(NCc2cn3c(n2)SCC3)nn1` ?
## Output -1.93

## Input What cytotoxicity at 70.5 h value was documented for this molecule, `CCOC(=O)N1CCCn2nc(C(=O)NCCN(C)C)cc2C1` ?
## Output -6.9

## Input What cytotoxicity at 70.5 h value was documented for this molecule, CC(=O)NCC(=O)N1Cc2c(-c3cccc(C)c3)nc(N)nc2C1C (centres undefined) ?
## Output -13.1

## Input What cytotoxicity at 70.5 h value was documented for this molecule, CC1CCCCN1c1nc2c(c(=O)[nH]1)CCN(Cc1cccnc1)C2 (centres undefined) ?
## Output -3.39

## Input What cytotoxicity at 70.5 h value was documented for this molecule, `Cc1ccc(F)c2c1N(C(=O)Cc1c(C)nn(C)c1C)CCC2` ?
## Output -8.9

###

protocol summary: Human HepG2 cell viability assay in 384 well format
Assay type: toxicity, cell-based
Parameters: dose 125 nL, time 70.5 hour; concentration not given beside the values
cond: HepG2 cells, read-out: Inhibition
Entries and their cytotoxicity at 70.5 h
Just the number please, in %, no unit attached.

As a guide, the following entries are already answered.
INSERT INTO assay_data (compound, metric, unit_info, experimental_result) VALUES
  ('Cc1nc(CN2C[C@@H]3CN(C(=O)C4CC4)C[C@@H]3C2=O)cs1', 'cytotoxicity at 70.5 h', '%', 27.3),
  ('CC(C)OCCC(=O)N1CCN(CC(O)c2ccccc2)CC1 (configuration not stated)', 'cytotoxicity at 70.5 h', '%', -1.62);

## Input What cytotoxicity at 70.5 h value was documented for this compound, Cc1nn(C)c(Cl)c1C1CCCN1Cc1nc(-c2ccco2)no1 (configuration not stated) ?
## Output -6.17

## Input What cytotoxicity at 70.5 h value was documented for this compound, c1cn(CC2CC2)c(C2CCN(CCC3CCOC3)CC2)n1 (configuration not stated) ?
## Output 21.7

## Input What cytotoxicity at 70.5 h value was documented for this compound, CN(C)C(=O)CCC[S+]([O-])Cc1cc(Cl)ccc1Cl (configuration not stated) ?
## Output -3.61

## Input What cytotoxicity at 70.5 h value was documented for this compound, CNC(=O)C1(C)CCCN(c2cnccn2)C1 (configuration not stated) ?
## Output -8.04

## Input What cytotoxicity at 70.5 h value was documented for this compound, `COC(=O)Cc1cn2cc(C(F)(F)F)ccc2n1` ?
## Output 13.2

## Input What cytotoxicity at 70.5 h value was documented for this compound, CS(=O)(=O)NCC1CCN(Cc2cc3ccccc3[nH]c2=O)C1 (configuration not stated) ?
## Output -3.86

## Input What cytotoxicity at 70.5 h value was documented for this compound, Cc1n[nH]c(C)c1C1COCCN1C(=O)c1ccccc1 (configuration not stated) ?
## Output -8.5

## Input What cytotoxicity at 70.5 h value was documented for this compound, CCN1CC2(CC1=O)CN(C(C)=O)CCN(S(C)(=O)=O)C2 (configuration not stated) ?
## Output -13.4

## Input What cytotoxicity at 70.5 h value was documented for this compound, CC(C)COc1ccc(C2SCC(=O)Nc3c2c(=O)[nH]n3C(C)C)cc1 (configuration not stated) ?
## Output -4.59

## Input What cytotoxicity at 70.5 h value was documented for this compound, `CN(C)S(=O)(=O)N1CC[C@]2(C[C@@H](Oc3ncccc3F)CO2)C1` ?
## Output 13.4
